# Lookup of reported RP-LC retention time keyed by entry
test: gradient 5% acetonitrile 3 min, to 50% in 2 min, to 85% in 15 min, held 3 min, 100 µL/min; settings: column: Zorbax Extend-C18 2.1 x 50 mm; eluents: water / acetonitrile, 0.1% formic acid
readout.label: RP-LC retention time (s)

- compound: "CCc1ccc(NC(=O)NC2CCN(c3ccc(F)c(C)c3)C2=O)cc1 (stereo not given)"
  result.unit: "s"
  observed.value: 905
- compound: "O=C(Cc1ccccc1Br)N1CCN(c2cc(-c3ccc(Cl)cc3)[nH]n2)CC1"
  result.unit: "s"
  observed.value: 939
- compound: "COc1ccc(-c2nc(NC(C)C)c3ccccc3n2)cc1"
  result.unit: "s"
  observed.value: 743
- compound: "Cc1cc(C)c(CN2CC(CNC(=O)N3CCCC3)C3(CCOCC3)C2)c(C)c1 (stereo not given)"
  result.unit: "s"
  observed.value: 635
- compound: "CCOc1cc(=O)n2c(c1C(=O)Nc1cc(OC)c(Cl)cc1OC)CCCC2"
  result.unit: "s"
  observed.value: 763

###

experiment: gradient 5% acetonitrile 3 min, to 50% in 2 min, to 85% in 15 min, held 3 min, 100 µL/min; conditions: column: Zorbax Extend-C18 2.1 x 50 mm; eluents: water / acetonitrile, 0.1% formic acid

- compound: "COc1ccc(NC(=O)Nc2cccc(-c3nccnc3N3CCCC3)c2)c(OC)c1"
  RP-LC retention time, s: 881
- compound: "CCC1Oc2ccc(S(=O)(=O)N3CCC(C(=O)NCc4ccccc4OC)CC3)cc2NC1=O (stereo not given)"
  RP-LC retention time, s: 839
- compound: "Cc1oc(C2CCN(C(=O)CCc3cc(Cl)no3)CC2)nc1C(=O)N1CCOCC1"
  RP-LC retention time, s: 684
- compound: "Cc1ccc(Cn2c(=O)n(CCNC(=O)c3ccc(C)s3)c3ncccc32)cc1"
  RP-LC retention time, s: 840
- compound: "COc1cc(NC(=O)N2CCCC(Cn3cnc4cccnc43)C2)cc(OC)c1 (stereo not given)"
  RP-LC retention time, s: 682

###

assay: gradient 5% acetonitrile 3 min, to 50% in 2 min, to 85% in 15 min, held 3 min, 100 µL/min; conditions: column: Zorbax Extend-C18 2.1 x 50 mm; eluents: water / acetonitrile, 0.1% formic acid
RP-LC retention time class ranges: bin 0 = under 700 s, bin 1 = from 700 s up to 900 s, bin 2 = 900 s and over

- compound: "Cc1ccc(-n2nc(CO)c(C(=O)NC3CCCC3)n2)cc1C"
  class.label: "bin 2"
- compound: "CCCNC(=O)NC1CCN(C2=NS(=O)(=O)C(c3ccc(CC)cc3)=C2C)CC1"
  class.label: "bin 1"
- compound: "O=C(Nc1ccc(Cl)c(Cl)c1)Nc1ccc([N+](=O)[O-])cn1"
  class.label: "bin 2"
- compound: "COc1ccc(NC(=O)N2CCC(Cc3nc4cccnc4n3C(C)C)C2)c(OC)c1 (centres undefined)"
  class.label: "bin 0"
- compound: "CCCN(C(=O)C1CCCN(c2ncnc3c2nc2n3CCCCC2)C1)c1ccc(F)cc1 (centres undefined)"
  class.label: "bin 2"
- compound: "COc1cccc2sc(N(C)CC(=O)NCCc3cccs3)nc12"
  class.label: "bin 1"
- compound: "O=c1c2cc3c(cc2nc(SCc2nc(-c4ccc(F)cc4)no2)n1-c1ccc(F)cc1)OCO3"
  class.label: "bin 2"
- compound: "CCc1nn2c(CNS(=O)(=O)Cc3cccc(Cl)c3)c(-c3ccccc3)nc2s1"
  class.label: "bin 2"
- compound: "COc1ccc2[nH]c(C(=O)N3CCN(C(=O)Cc4cccs4)CC3)cc2c1"
  class.label: "bin 1"
- compound: "CCCN1C(=O)Cc2ccccc2C1C(=O)O (centres undefined)"
  class.label: "bin 0"
- compound: "Cc1nc(Nc2ccc(F)cn2)sc1C(=O)N1CCN(c2ccc(F)cc2)CC1"
  class.label: "bin 1"
- compound: "CCCCCc1c(C)nn(-c2nc(CC(=O)Nc3nc4ccccc4[nH]3)cs2)c1C"
  class.label: "bin 2"
- compound: "CCOc1ccc(N2C(=O)C3N=NN(Cc4nc(-c5cccc(C)c5)no4)C3C2=O)cc1 (centres undefined)"
  class.label: "bin 2"
